Consider the following compounds and their measured MBB rating (larvae dead) readings.
Tested on: Mexican bean beetle (MBB) larvae
Assay: Spray test, Mexican bean beetle (MBB) larvae on bean leaves
Format: in vivo
Conditions: 250 ppm; approx. 48 h after spraying

Take a look at these entries with their results.
C#CCSc1nc(CCC)nn1C(=O)N(C)C    5 (100% larvae dead)
C=CCSc1nc(C(C)C)nn1C(=O)N(C)C    5 (100% larvae dead)
C=CCSc1nc(C(C)(C)C)nn1C(=O)N(C)C    5 (100% larvae dead)

Switching to the query record.
q: Using the record for C#CCSc1nc(C(C)C)nn1C(=O)N(C)C , state its measured MBB rating (larvae dead).
a: 5 (100% larvae dead)
